target: Fuc(a1-2)[Gal(a1-3)]Gal(b1-3)GlcNAc; test: glycan array binding signal (z-score within array); higher = stronger binding; conditions: glycan notation: IUPAC condensed, linker removed
The entries come from a sample that favours the strongest signals as a whole.
reported_property: glycan array binding signal (z-score)

{"columns": ["binder", "val"],
 "data": [
  ["Cohesin-mDCIR (Macaca mulatta) (protein) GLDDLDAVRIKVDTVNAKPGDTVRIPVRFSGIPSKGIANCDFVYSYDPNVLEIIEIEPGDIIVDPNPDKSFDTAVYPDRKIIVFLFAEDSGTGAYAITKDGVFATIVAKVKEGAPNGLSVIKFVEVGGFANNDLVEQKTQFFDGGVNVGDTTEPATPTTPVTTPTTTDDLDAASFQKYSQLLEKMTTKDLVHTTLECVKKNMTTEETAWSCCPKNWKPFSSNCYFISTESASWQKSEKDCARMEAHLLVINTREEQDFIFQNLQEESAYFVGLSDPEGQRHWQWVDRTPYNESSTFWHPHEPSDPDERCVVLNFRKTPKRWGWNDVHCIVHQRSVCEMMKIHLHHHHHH", 3.96]
]}
